conditions: in isopropyl acetate, 313.15 K
property.measured: solubility (mole fraction)
Numbers only.

Form: compound = COc1ccc(C(=O)O)cc1 ; solubility (mole fraction) = 0.0156

###

settings: in toluene, 308.15 K
property.measured: solubility (mole fraction)
One number for each entry.

Form: compound = COc1ccc(C(=O)O)cc1 ; solubility (mole fraction) = 0.00252

###

conditions: in n-butanol, 328.15 K
property.measured: solubility (mole fraction)
Numbers only.

Form: molecule = COc1ccc(C(=O)O)cc1 ; solubility (mole fraction) = 0.0302

###

details: in ethyl formate, 283.15 K
property.measured: solubility (mole fraction)

Form: molecule = COc1ccc(C(=O)O)cc1 ; solubility (mole fraction) = 0.00442

###

settings: in n-propyl acetate, 318.15 K
property.measured: solubility (mole fraction)
Numbers only.

Form: compound = COc1ccc(C(=O)O)cc1 ; solubility (mole fraction) = 0.0182

###

details: in sec-butanol, 323.15 K
property.measured: solubility (mole fraction)

Form: compound = COc1ccc(C(=O)O)cc1 ; solubility (mole fraction) = 0.0317

###

conditions: in n-pentanol, 288.15 K
property.measured: solubility (mole fraction)
Answers are plain numbers.

Form: molecule = COc1ccc(C(=O)O)cc1 ; solubility (mole fraction) = 0.00853

###

conditions: in n-butyl acetate, 288.15 K
property.measured: solubility (mole fraction)
Numbers only.

Form: compound = COc1ccc(C(=O)O)cc1 ; solubility (mole fraction) = 0.00719

###

details: in THF, 323.15 K
property.measured: solubility (mole fraction)
Give bare numbers.

Form: compound = COc1ccc(C(=O)O)cc1 ; solubility (mole fraction) = 0.0923

###

conditions: in isobutanol, 323.15 K
property.measured: solubility (mole fraction)

Form: compound = COc1ccc(C(=O)O)cc1 ; solubility (mole fraction) = 0.025

###

conditions: in cyclohexanone, 323.15 K
property.measured: solubility (mole fraction)
Numbers only.

Form: compound = COc1ccc(C(=O)O)cc1 ; solubility (mole fraction) = 0.0507

###

conditions: in n-propyl acetate, 288.15 K
property.measured: solubility (mole fraction)
Numbers only.

Form: molecule = COc1ccc(C(=O)O)cc1 ; solubility (mole fraction) = 0.00802

###

conditions: in ethylene glycol, 328.15 K
property.measured: solubility (mole fraction)
One number for each entry.

Form: molecule = COc1ccc(C(=O)O)cc1 ; solubility (mole fraction) = 0.0126

###

conditions: in sec-butanol, 308.15 K
property.measured: solubility (mole fraction)
One number for each entry.

Form: molecule = COc1ccc(C(=O)O)cc1 ; solubility (mole fraction) = 0.0182

###

conditions: in n-propyl acetate, 313.15 K
property.measured: solubility (mole fraction)
Answers are plain numbers.

Form: molecule = COc1ccc(C(=O)O)cc1 ; solubility (mole fraction) = 0.0155

###

conditions: in cyclohexanone, 283.15 K
property.measured: solubility (mole fraction)
Answers are plain numbers.

Form: molecule = COc1ccc(C(=O)O)cc1 ; solubility (mole fraction) = 0.0187

###

details: in toluene, 313.15 K
property.measured: solubility (mole fraction)
One number for each entry.

Form: compound = COc1ccc(C(=O)O)cc1 ; solubility (mole fraction) = 0.00301

###

settings: in THF, 308.15 K
property.measured: solubility (mole fraction)
Numbers only.

Form: molecule = COc1ccc(C(=O)O)cc1 ; solubility (mole fraction) = 0.0731

###

conditions: in THF, 288.15 K
property.measured: solubility (mole fraction)
Give bare numbers.

Form: compound = COc1ccc(C(=O)O)cc1 ; solubility (mole fraction) = 0.0518
